- Assay Target: WRN helicase (Homo sapiens, UniProt Q14191)
- Construct: His-tagged WRN construct used for biochemical characterization (aa S2-S1235); His; made in house; host or cells: Sf9 insect cells (baculovirus)
- Assay Info: ATPase assay on WRN helicase (ADP-Glo) with varied preincubation times
- Assay type: biochemical
- Setup Conditions: preincubation 1 hour
Readout: IC50 (µM)
The reply should be a number in µM, with the unit left off.

Any idea what IC50 was measured for C=CC(=O)Nc1ccccc1-c1c(CC)n(CC(=O)Nc2ccc(C(F)(F)F)cc2)c2nc(C3=CCOCC3)nn2c1=O ? 0.024

* * *

Below, each entry is listed alongside its reported IC50.
- Assay Target: WRN (Homo sapiens)
- Construct: A His-tagged construct of WRN (AA S2-S1235) was produced and used for the ATPase assay; His; made in house; host or cells: Sf9 insect cells (baculovirus)
- Assay Info: WRN Helicase activity assay (fluorescence DNA unwinding)
- Format: biochemical
- Setup Conditions: IC50, 1-hr pre-incubation with enzyme; geometric means of at least 2 independent replicates

Entry Smiles | IC50
C=CC(=O)Nc1cc(Cl)ccc1-c1c(CC)n(CC(=O)Nc2ccc(C(F)(F)F)cc2)c2nc(C3=CCOCC3)nn2c1=O | < 100 nM

Any idea what IC50 was measured for C=CC(=O)N(C)c1ccccc1-c1c(CC)n(CC(=O)Nc2ccc(C(F)(F)F)cc2)c2nc(C3=CCOCC3)nn2c1=O ? 100 to 500 nM

Ok, now C=CC(=O)Nc1ccccc1-c1c(CC)n(CC(=O)Nc2ccc(C(F)(F)F)cc2)c2nc(C3=CCOCC3)nn2c1=O < 100 nM

Ok, now C=CC(=O)Nc1cc(C)ccc1-c1c(CC)n(CC(=O)Nc2ccc(C(F)(F)F)cc2)c2nc(C3=CCOCC3)nn2c1=O < 100 nM

Ok, now C=CC(=O)Nc1ccccc1-c1c(CC)n(CC(=O)Nc2ccc(C(F)(F)F)cc2)c2nc(-c3cccs3)nn2c1=O < 100 nM

* * *

- Assay Target: WRN (Homo sapiens, UniProt Q14191)
- Construct: A His-tagged construct of WRN (AA S2-S1235) was produced and used for the ATPase assay; His; made in house; host or cells: Sf9 insect cells (baculovirus)
- Sequence (Q14191 2-1235): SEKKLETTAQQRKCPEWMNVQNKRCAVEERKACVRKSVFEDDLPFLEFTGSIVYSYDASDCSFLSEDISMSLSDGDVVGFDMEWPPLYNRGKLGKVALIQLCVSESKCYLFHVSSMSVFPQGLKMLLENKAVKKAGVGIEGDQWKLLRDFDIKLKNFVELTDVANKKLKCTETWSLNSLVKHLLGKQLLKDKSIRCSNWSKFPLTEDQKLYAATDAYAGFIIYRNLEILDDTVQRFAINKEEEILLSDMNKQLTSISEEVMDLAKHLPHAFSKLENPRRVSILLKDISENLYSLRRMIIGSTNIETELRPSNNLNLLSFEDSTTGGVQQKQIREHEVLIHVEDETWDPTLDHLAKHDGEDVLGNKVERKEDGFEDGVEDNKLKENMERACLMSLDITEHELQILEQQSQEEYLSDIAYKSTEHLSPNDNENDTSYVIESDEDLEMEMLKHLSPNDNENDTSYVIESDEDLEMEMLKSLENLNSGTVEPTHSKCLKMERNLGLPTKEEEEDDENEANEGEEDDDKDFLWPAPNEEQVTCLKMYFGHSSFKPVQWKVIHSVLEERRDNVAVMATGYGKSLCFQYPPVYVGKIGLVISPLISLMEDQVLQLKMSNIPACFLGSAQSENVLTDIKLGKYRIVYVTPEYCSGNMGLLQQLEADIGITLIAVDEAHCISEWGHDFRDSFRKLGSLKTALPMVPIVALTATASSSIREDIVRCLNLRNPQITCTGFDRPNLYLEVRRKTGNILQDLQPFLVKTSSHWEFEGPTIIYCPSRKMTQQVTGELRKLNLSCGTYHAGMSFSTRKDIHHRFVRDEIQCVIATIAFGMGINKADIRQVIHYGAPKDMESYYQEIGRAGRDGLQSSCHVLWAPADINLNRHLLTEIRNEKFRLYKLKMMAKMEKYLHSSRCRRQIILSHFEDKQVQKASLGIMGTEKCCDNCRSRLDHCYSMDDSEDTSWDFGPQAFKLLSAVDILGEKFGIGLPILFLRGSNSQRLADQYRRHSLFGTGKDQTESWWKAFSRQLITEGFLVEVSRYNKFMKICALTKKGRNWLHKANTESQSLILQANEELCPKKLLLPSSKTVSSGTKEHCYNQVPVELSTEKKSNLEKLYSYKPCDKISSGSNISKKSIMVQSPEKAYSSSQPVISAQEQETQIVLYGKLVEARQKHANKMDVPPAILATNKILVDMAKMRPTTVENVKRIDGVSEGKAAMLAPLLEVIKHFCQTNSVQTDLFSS
- Assay Info: WRN ATPase activity assay (ADP-Glo)
- Type: biochemical
- Setup Conditions: IC50, 1-hr pre-incubation with enzyme; geometric means of at least 2 independent replicates
Readout: IC50

Compound | Readout | Value Observed
CCc1c(-c2ccccc2NC(=O)/C(C#N)=C/C(C)C)c(=O)n2nc(C3=CCOCC3)nc2n1CC(=O)Nc1ccc(C(F)(F)F)cc1 (single isomer, unassigned) | IC50 | < 100 nM
C=CC(=O)Nc1ccccc1-c1c(CC)n(CC(=O)Nc2ccc(C(F)(F)F)cc2)c2nc(C3CCOCC3)nn2c1=O | IC50 | 100 to 500 nM
C=CC(=O)Nc1cc(C)ccc1-c1c(CC)n(CC(=O)Nc2ccc(C(F)(F)F)cc2)c2nc(C3=CCOCC3)nn2c1=O | IC50 | < 100 nM
C=CC(=O)Nc1cc(Cl)ccc1-c1c(CC)n(CC(=O)Nc2ccc(C(F)(F)F)cc2)c2nc(C3=CCOCC3)nn2c1=O | IC50 | < 100 nM
C=CC(=O)Nc1ccccc1-c1c(CC)n(CC(=O)Nc2ccc(C(F)(F)F)cc2Cl)c2nc(C(C)C)nn2c1=O | IC50 | 100 to 500 nM
C=CC(=O)Nc1ccccc1-c1c(CC)n(CC(=O)Nc2ccc(C(F)(F)F)cc2)c2nc(C3CC3)nn2c1=O | IC50 | < 100 nM
C=CC(=O)Nc1c(C)cccc1-c1c(CC)n(CC(=O)Nc2ccc(C(F)(F)F)cc2)c2nc(C3=CCOCC3)nn2c1=O | IC50 | 100 to 500 nM

Please look at the following compound next.
Any idea what IC50 was measured for C=CC(=O)Nc1ccc(C)cc1-c1c(CC)n(CC(=O)Nc2ccc(C(F)(F)F)cc2)c2nc(C3=CCOCC3)nn2c1=O ? 500 to 1000 nM

Value source: patent US20250333419A1
